Item-by-item account of GI50
Tested on: COLO 205 colon
assay.method.text: NCI tumour cell line growth inhibition, 48 h

Use these answered entries as a reference point.
Please give the measured GI50 for this compound: `Oc1ccccc1/C=N/Nc1nc2ccccc2s1`
4.7 µM

Quick one: GI50 for `CC[C@]12C=CCN3CC[C@@]4(c5ccc(OC)cc5N(C)[C@H]4[C@@](O)(C(=O)OC)[C@@H]1OC(=O)CCCC[P+](c1ccccc1)(c1ccccc1)c1ccccc1)[C@@H]32` ?
0.242 µM

Would you mind telling me what GI50 value was observed for `C[C@@]1([C@H](OC(=O)c2cccc3ccccc23)C(N)=O)CO1` ?
2.99 µM

New cases:
Query: GI50; subject: `COc1ccc(-c2c(-c3cc4c(c(OC)c3OC)OCO4)noc2N)cc1`
0.277 µM

// GI50 lookup, key: `[O-]c1ccccc1[C-]=Nc1ccccc1O.[O-]c1ccccc1[C-]=Nc1ccccc1O.[O]=[U]=[O]`
19 µM

Fill in: GI50 of COc1ccc(C2CC(c3ccc4ccccc4c3)=NN2/C=C2\SC(=S)N(NC(=O)Cc3ccccc3Nc3c(Cl)cccc3Cl)C2=O)cc1 (centres undefined) is ___
1.89 µM

Look up GI50 for this compound: C=CC1CC12C(=O)C1OC2(C)C2C(=O)c3c(O)cccc3C(=O)C12 (centres undefined)
31.7 µM

Give its GI50 value. Item: `Nc1c(C(=O)c2cccc(C(O)(CO)CO)c2)cnn1-c1ccc(F)cc1`
> 25 µM
